# Measured on: T1, cynomolgus macaque (Macaca fascicularis) CD39 (Macaca fascicularis, UniProt P49961 7-510 (human entry))
# T1 construct: On engineered CHO cells and on primary cyno B cells and monocytes; also called cyno CD39; cCD39
# T1 chain: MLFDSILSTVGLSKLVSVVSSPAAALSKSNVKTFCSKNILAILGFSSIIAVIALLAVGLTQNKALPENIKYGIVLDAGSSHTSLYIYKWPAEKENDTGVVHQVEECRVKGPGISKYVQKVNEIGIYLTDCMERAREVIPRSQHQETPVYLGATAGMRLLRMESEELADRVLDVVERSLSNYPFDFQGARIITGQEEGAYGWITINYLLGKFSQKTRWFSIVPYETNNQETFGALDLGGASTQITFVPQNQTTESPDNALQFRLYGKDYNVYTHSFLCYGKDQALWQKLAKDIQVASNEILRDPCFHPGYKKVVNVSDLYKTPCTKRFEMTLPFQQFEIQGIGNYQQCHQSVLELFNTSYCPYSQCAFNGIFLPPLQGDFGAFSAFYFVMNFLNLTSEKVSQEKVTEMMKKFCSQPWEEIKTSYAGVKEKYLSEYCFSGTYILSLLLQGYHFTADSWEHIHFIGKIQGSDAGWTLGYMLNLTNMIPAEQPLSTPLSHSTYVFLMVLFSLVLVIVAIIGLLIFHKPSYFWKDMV
# Method description: flow cytometry, 100 nM IgG, MFI on CHO-cCD39 / MFI on parental CHO;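 note: antibodies bound to the cells for 30 min in PBS, then bound IgG was revealed with a fluorescent goat anti-human IgG secondary antibody, 20 min on ice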
Exercise: state measured Cell Binding (FOB) for each of the binders provided.
Give bare numbers, in fold over background.

Solved cases below.
>>> number("27535 (antibody, human IgG4 S228P, kappa, V domains shown) VH: QVQLVQSGAEVKKPGSSVKVSCKASGGTFSSYAISWVRQAPGQGLEWMGGIIPIFGTANYAQKFQGRVTITADESTSTAYMELSSLRSEDTAVYYCARDTPRWRYHYFDYWGQGTLVTVSS VL: EIVLTQSPATLSLSPGERATLSCRASQSVSSYLAWYQQKPGQAPRLLIYDASKRATGIPARFSGSGSGTDFTLTISSLEPEDFAVYYCQQVLNYPLTFGGGTKVEIKR")
738
>>> number("27577 (antibody, human IgG4 S228P, kappa, V domains shown) VH: QVQLVQSGAEVKKPGSSVKVSCKASGGAFSSYAIGWVRQAPGQGLEWMGGIIPTFGTANYAQKFQGRVTITADESTSTAYMELSSLRSEDTAVYYCARDGGGYQHHYFDLWGRGTLVTVSS VL: EIVMTQSPATLSVSPGERATLSCRASQSVGSNLAWYQQKPGQAPRLLIYGASTRATGIPARFSGSGSGTEFTLTISSLQSEDFAVYYCQQLTKWPLTFGGGTKVEIKR")
339
>>> number("31429 (antibody, V domains shown) VH: QVQLVQSGAEVKKPGASVKVSCKASGYTFVSYFMHWVRQAPGQGLEWMGSINPRGGSTSYAQKFQGRVTMTRDTSTSTVYMELSSLRSEDTAVYYCARGKREGGTEYLRHWGQGTLVTVSS VL: EIVLTQSPGTLSLSPGERATLSCRASQYVSSSYLAWYQQKPGQAPRLLIYYASNRATGIPDRFSGSGSGTDFTLTISRLEPEDFAVYYCQQYHSGITFGGGTKVEIK")
3800
>>> number("31891 (antibody, human IgG4 S228P, kappa, V domains shown) VH: QVQLVQSGAEVKKPGASVKVSCKASGYIFKSYEMHWVRQAPGQGLEWMGRINPSVGSTWYAQKFQGRVTMTRDTSTSTVYMELSSLRSEDTAVYYCARGKREGGTEYLRVWGQGTLVTVSS VL: EIVLTQSPGTLSLSPGERATLSCRASQSVSSSYLAWYQQKPGQAPRLLIYYASSRAYGIPDRFSGSGSGTDFTLTISRLEPEDFAVYYCQQYHNAITFGGGTKVEIKR")
4650
>>> number("27579 (antibody, V domains shown) VH: QVQLVQSGAEVKEPGASVKVSCKAPGYTFTSYYMHWVRQAPGQGLEWMGVINPSGGSTSYAQKFQGRVTMTRDTSTSTVYMELSSLRSEDTAVYYCARGKREGGTEYLRHWGQGTLVTVSS VL: EIVLTQSPGTLSLSPGERATLSCRASQSVSSSYLAWYQQKPGQAPRLLIYGASSRATGIPDRFSGSGSGTDFTLTISRLEPEDFAVYYCQQYHSYITFGGGTKVEIK")
2670
>>> number("27571 (antibody, V domains shown) VH: QVQLVQSGAEVKKPGSSVKASCKASGGTFSSYAISWVRQAPGQGLEWMGSIIPIFGTANYAQKFRGRVTITADESTSTTYMELSSLRSEDTAVYYCARESGGYRDHRLDVWGQGTMVTVSS VL: EIVMTQSPATLSVSPGERATLSCRASQSVGSNLAWYQQKPGQAPRLLIYGASTRATGIPARFSGSGSGTEFTLTISSLQSEDFAVYYCQQYLIWPLTFGGGTKVEIK")
1610

Could you now look at the following binder, please?
Qu. # query: Cell Binding (FOB) of entry 31414 (antibody, human IgG4 S228P, kappa, V domains shown) VH: QVQLVQSGAEVKKPGASVKVSCKASGYTFKSYEMHWVRQAPGQGLEWMGRINPSVGSTWYAQKFQGRVTMTRDTSTSTVYMELSSLRSEDTAVYYCARGKREGGTEYLRNWGQGTLVTVSS VL: EIVLTQSPGTLSLSPGERATLSCRASQSVSSSYLAWYQQKPGQAPRLLIYGASSRATGIPDRFSGSGSGTDFTLTISRLEPEDFAVYYCQQYHSYITFGGGTKVEIKR
Ans. 3570
